What EC50 was measured for each of the following?
Measurement Target: Receptor Binding Domain (RBD) of the SARS-COV-2 protein S (SARS-CoV-2, UniProt P0DTC2 319-541)
Assay Text: ELISA, purified nanobody, RBD coated
One number for each entry, in nM.

Look over these answered cases.
Give the measured EC50 for NbCoV_48 (VHH) VHH: QVQLQESGGGLVQPGGSLRLSCVASRSIGSINHMAWYRKAPGKERELVASITLSPSETVYYTEVVKGRFAISKGNAQNTLYLQMNSLKPEDTAVYYCHFRQIRAIADDVYWGQGTQVTVSS
1.78

Give the measured EC50 for NbCoV_27 (VHH) VHH: QVQLQESGGGLVQPGGSLRLSCAASGSGFSLRVMGWYRQAPGKEHRLVATISRTGITNYADSVKGRFTISRDNAKDTVYLQMNNLKPEDTDVYYCYARNFVGDDFNLWGQGTQVTVSS
0.7

Give the measured EC50 for NbCoV_136 (VHH) VHH: QVQLQESGGGLVQTGGSLRLSCAASGRTASSYTMGWFRQAAGKERDFVAAIRESLGYTNYADSVKGRFTISRDNANNTVYLQMNSLKPEDTAVYYCAAYEGIRYSSTRADFYNYWGQGTQVTVSS
13.4

Proceeding to the next binder to report its EC50.
Give the measured EC50 for NbCoV_145 (VHH, also called Nb 145) VHH: QVQLQESGGGLVQAGGSLRLSCAASGRTFSSYAMGWFRQAPGKEREFVAVINWSGANTRYTDSVKGRFSISRDNAKNTVYLQMNSLKPEDTAVYYCAADPGNFGVPIEHFMYDYWGQGTQVTVSS
4.63

This collection of values is drawn from patent US20240254202A1.
